target: mushroom tyrosinase (Agaricus bisporus); test: Mushroom tyrosinase enzyme activity inhibition assay; assay type: biochemical
Sequence (C7FF04 1-392): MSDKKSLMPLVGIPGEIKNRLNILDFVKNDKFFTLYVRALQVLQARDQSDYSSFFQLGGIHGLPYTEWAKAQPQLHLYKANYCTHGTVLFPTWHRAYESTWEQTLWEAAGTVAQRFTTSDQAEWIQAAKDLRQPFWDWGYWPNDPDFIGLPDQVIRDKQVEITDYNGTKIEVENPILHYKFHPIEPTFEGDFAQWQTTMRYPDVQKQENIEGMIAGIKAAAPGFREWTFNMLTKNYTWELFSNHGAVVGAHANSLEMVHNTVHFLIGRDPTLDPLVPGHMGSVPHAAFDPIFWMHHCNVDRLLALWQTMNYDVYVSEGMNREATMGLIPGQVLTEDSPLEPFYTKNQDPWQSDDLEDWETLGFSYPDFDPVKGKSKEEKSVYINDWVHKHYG
pIC50: −log10 of the molar value.
experimental-endpoint: pIC50

smiles=CC(=O)Nc1ccc(/C=N/NC(N)=S)cc1 system_name="mushroom tyrosinase (Agaricus bisporus)" obs_value=4.85
smiles=CCCc1cc(=O)[nH]c(=S)[nH]1 system_name="mushroom tyrosinase (Agaricus bisporus)" obs_value=3.43
smiles=O=c1cc[nH]c(=S)[nH]1 system_name="mushroom tyrosinase (Agaricus bisporus)" obs_value=3.67
smiles=N=C(N)NN=C1C=CC(=NNC(N)=S)C=C1 system_name="mushroom tyrosinase (Agaricus bisporus)" obs_value=4.82

====

Property: MTT (%); scope: individual molecules
test system: B16F10 cells; test: MTT cell viability assay; conditions: 20 µM, mean ± SD, triplicate
experimental-endpoint: MTT (%)

molecule="Cc1cc(=O)[nH]c(=S)[nH]1 [compound 8, Methylthiouracil]" system_name="B16F10 cells" experimental_endpoint="MTT (%)" obs_value=108
molecule="NC(=S)Nc1ccccc1 [compound 1, Phenylthiourea]" system_name="B16F10 cells" experimental_endpoint="MTT (%)" obs_value=113
molecule="N=C(N)NN=C1C=CC(=NNC(N)=S)C=C1 [compound 4, Ambazone]" system_name="B16F10 cells" experimental_endpoint="MTT (%)" obs_value=95
molecule="CC(=O)Nc1ccc(/C=N/NC(N)=S)cc1 [compound 3, Thioacetazone]" system_name="B16F10 cells" experimental_endpoint="MTT (%)" obs_value=95
molecule="CCCc1cc(=O)[nH]c(=S)[nH]1 [compound 9, Propylthiouracil]" system_name="B16F10 cells" experimental_endpoint="MTT (%)" obs_value=102
molecule="O=c1cc(CO)occ1O [compound 2, Kojic acid]" system_name="B16F10 cells" experimental_endpoint="MTT (%)" obs_value=114
molecule="Cn1cc[nH]c1=S [compound 5, Methimazole]" system_name="B16F10 cells" experimental_endpoint="MTT (%)" obs_value=100
molecule="O=c1cc[nH]c(=S)[nH]1 [compound 7, Thiouracil]" system_name="B16F10 cells" experimental_endpoint="MTT (%)" obs_value=99
